Attribution: patent US20260216294A1

# Emax at 10 µM per entry
# System: L6-myotubes
# assay_name: Glucose uptake in differentiated L6-myotubes (Biological Example 2)
# Type: cell-based
# measurement_parameters: glucose uptake in differentiated L6-myotubes; compound at 10 μM, activity relative to isoproterenol at 10 μM; read-out: Biological example 2 (GU)

compound="CC1(C)C[C@@H]([C@H](O)c2cccc(F)c2)N1 [Compound 200]" result="< 25%"
compound="CO[C@H]1CC[C@H](C[C@@H]2CC[C@H]([C@@H](O)c3cncc(F)c3)N2)CC1 [Compound 332]" result="25 to 50%"
compound="CC(C)(C[C@H]1CC[C@H](O)CC1)NC[C@H](O)c1cccc(F)c1 [Compound 300]" result="> 75%"
compound="O[C@@H](CNCCC[C@H]1CC[C@@H](O)CC1)c1cccc(F)c1 [Compound 306]" result="25 to 50%"
compound="COC(=O)[C@H]1CC[C@H](CC(C)(C)NC[C@H](O)c2cncc(F)c2)CC1 [Compound 354]" result="50 to 75%"
compound="CS(=O)(=O)N(Cc1ccccc1)CC12CCC([C@H](O)c3cccc(F)c3)(CC1)N2 [Compound 537]" result="50 to 75%"
compound="CN([C@H]1CC[C@@H](CC(C)(C)NC[C@H](O)c2cccc(F)c2)CC1)S(C)(=O)=O [Compound 498]" result="25 to 50%"
compound="CS(=O)(=O)N(Cc1ccccc1)c1ccc(CC23CCC([C@@H](O)c4cccc(F)c4)(CC2)N3)cc1 [Compound 472]" result="25 to 50%"

stdin: Kindly state the measured Emax at 10 µM obtained for CO[C@H]1CC[C@H](CCNC[C@H](O)c2cncc(F)c2)CC1 [Compound 225] with L6-myotubes.
stdout: 50 to 75%

stdin: Kindly state the measured Emax at 10 µM obtained for CC(C)(NC[C@H](O)c1cccc(F)c1)[C@H]1CC[C@H](OCc2ccccc2)CC1 [Compound 279] with L6-myotubes.
stdout: 50 to 75%

stdin: Kindly state the measured Emax at 10 µM obtained for CC1(C)C[C@H]([C@@H](O)c2ccccc2F)N1 [Compound 203] with L6-myotubes.
stdout: 25 to 50%

stdin: Kindly state the measured Emax at 10 µM obtained for O=C(N[C@H]1CC[C@@H](CNC[C@H](O)c2cccc(F)c2)CC1)c1ccccc1 [Compound 316] with L6-myotubes.
stdout: 50 to 75%

stdin: Kindly state the measured Emax at 10 µM obtained for O=C(N[C@H]1CC[C@@H](CNC[C@H](O)c2cncc(F)c2)CC1)c1ccccc1 [Compound 318] with L6-myotubes.
stdout: 50 to 75%

stdin: Kindly state the measured Emax at 10 µM obtained for CC(=O)N[C@H]1CC[C@@H](CC(C)(C)NC[C@@H](O)c2cccc(C#N)n2)CC1 [Compound 423] with L6-myotubes.
stdout: < 25%

stdin: Kindly state the measured Emax at 10 µM obtained for CC12CC(C1)[C@@H]([C@H](O)c1cccc(Cl)c1)N2 [Compound 209] with L6-myotubes.
stdout: 25 to 50%

stdin: Kindly state the measured Emax at 10 µM obtained for CC(=O)N[C@H]1CC[C@@H](CC(C)(C)NC[C@H](O)c2cccnc2C)CC1 [Compound 436] with L6-myotubes.
stdout: 50 to 75%

stdin: Kindly state the measured Emax at 10 µM obtained for CC(C)(NC[C@H](O)c1cccc(F)c1)[C@H]1CC[C@@H](OCC(=O)O)CC1 [Compound 408] with L6-myotubes.
stdout: 50 to 75%
